The measurements presented in this section are drawn from patent US12648941B2.

Test: Phase 1 single ascending dose study, plasma pharmacokinetics
Assay type: in vivo, human
Details: male, human, plasma; 1.0 mg HM01 single oral dose, N = 6; median; read-out: tmax
MEASURED_PARAMETER: Tmax (h)
Reply with just the number (in h).

Requested field: Tmax. Item: COc1ccc([C@H](C)NC(=O)N(C)[C@@H]2CCN(C)CC2(C)C)c(Cl)c1Cl.Cl 4

====

Experiment: Phase 1 single ascending dose study, plasma pharmacokinetics
Type: in vivo, human
Details: male, human, plasma; 0.1 mg HM01 single oral dose, N = 6; geometric mean
MEASURED_PARAMETER: Cmax

Requested field: Cmax. Item: COc1ccc([C@H](C)NC(=O)N(C)[C@@H]2CCN(C)CC2(C)C)c(Cl)c1Cl.Cl 0.136 ng/mL

====

Assay: Phase 1 single ascending dose study, plasma pharmacokinetics
Format: in vivo, human
Conditions: male, human, plasma; 10 mg HM01 single oral dose, N = 3; median; read-out: tmax
MEASURED_PARAMETER: Tmax

Requested field: Tmax. Item: COc1ccc([C@H](C)NC(=O)N(C)[C@@H]2CCN(C)CC2(C)C)c(Cl)c1Cl.Cl 3 h

====

Assay: Phase 1 single ascending dose study, plasma pharmacokinetics
Format: in vivo, human
Conditions: male, human, plasma, po, 1 mg, 1.0 mg HM01 single oral dose, fasted healthy males, N = 6; geometric mean; read-out: AUC0-24h
MEASURED_PARAMETER: AUC(0-t)

Requested field: AUC(0-t). Item: COc1ccc([C@H](C)NC(=O)N(C)[C@@H]2CCN(C)CC2(C)C)c(Cl)c1Cl.Cl [AC01/HM01] 0.0134 µg·h/mL

====

Assay: Phase 1 single ascending dose study, plasma pharmacokinetics
Format: in vivo, human
Conditions: male, human, plasma; 1.0 mg HM01 single oral dose, N = 6; geometric mean
MEASURED_PARAMETER: MRT (h)
Reply with just the number (in h).

Requested field: MRT. Item: COc1ccc([C@H](C)NC(=O)N(C)[C@@H]2CCN(C)CC2(C)C)c(Cl)c1Cl.Cl 15.3

====

Assay: Phase 1 single ascending dose study, plasma pharmacokinetics
Assay type: in vivo, human
Settings: male, human, plasma; 10 mg HM01 single oral dose, N = 3; arithmetic mean; read-out: t1/2 (converted)
MEASURED_PARAMETER: half-life (h)
Reply with just the number (in h).

Requested field: half-life. Item: COc1ccc([C@H](C)NC(=O)N(C)[C@@H]2CCN(C)CC2(C)C)c(Cl)c1Cl.Cl 10.9

====

Assay: Phase 1 single ascending dose study, plasma pharmacokinetics
Format: in vivo, human
Conditions: male, human, plasma, po, 0.3 mg, 0.3 mg HM01 single oral dose, N = 6; geometric mean; read-out: AUClast
Method: Single-center, randomized, double-blind, placebo-controlled, single ascending dose (SAD) study. Screening examinations were performed within 28 days prior to dosing. Eligible subjects returned to the study center in the morning of Day-1 and remained in-patient until discharge at 72 hours after dosing (morning of Day 4) if there were no safety issues. The oral dose was administered in the morning of Day 1. […]
MEASURED_PARAMETER: AUC(0-t) (ng·h/mL)
Reply with just the number (in ng·h/mL).

Requested field: AUC(0-t). Item: COc1ccc([C@H](C)NC(=O)N(C)[C@@H]2CCN(C)CC2(C)C)c(Cl)c1Cl.Cl 2.82

====

Test: Phase 1 single ascending dose study, plasma pharmacokinetics
Assay type: in vivo, human
Conditions: male, human, plasma; 0.3 mg HM01 single oral dose, N = 6; median; read-out: tmax
MEASURED_PARAMETER: Tmax (h)
Reply with just the number (in h).

Requested field: Tmax. Item: COc1ccc([C@H](C)NC(=O)N(C)[C@@H]2CCN(C)CC2(C)C)c(Cl)c1Cl.Cl 4

====

Assay: Phase 1 single ascending dose study, plasma pharmacokinetics
Assay type: in vivo, human
Conditions: male, human, plasma; 0.3 mg HM01 single oral dose, n = 5; geometric mean
MEASURED_PARAMETER: MRT (h)
Reply with just the number (in h).

Requested field: MRT. Item: COc1ccc([C@H](C)NC(=O)N(C)[C@@H]2CCN(C)CC2(C)C)c(Cl)c1Cl.Cl 14.4

====

Assay: Phase 1 single ascending dose study, plasma pharmacokinetics
Assay type: in vivo, human
Details: male, human, plasma; 1.0 mg HM01 single oral dose, N = 6; geometric mean
Protocol: Single-center, randomized, double-blind, placebo-controlled, single ascending dose (SAD) study. Screening examinations were performed within 28 days prior to dosing. Eligible subjects returned to the study center in the morning of Day-1 and remained in-patient until discharge at 72 hours after dosing (morning of Day 4) if there were no safety issues. The oral dose was administered in the morning of Day 1. […]
MEASURED_PARAMETER: AUC(0-inf) (µg·h/mL)
Reply with just the number (in µg·h/mL).

Requested field: AUC(0-inf). Item: COc1ccc([C@H](C)NC(=O)N(C)[C@@H]2CCN(C)CC2(C)C)c(Cl)c1Cl.Cl 0.0169

====

Experiment: Phase 1 single ascending dose study, plasma pharmacokinetics
Assay type: in vivo, human
Conditions: male, human, plasma; 1.0 mg HM01 single oral dose, N = 6; geometric mean
MEASURED_PARAMETER: Cmax (ng/mL)
Reply with just the number (in ng/mL).

Requested field: Cmax. Item: COc1ccc([C@H](C)NC(=O)N(C)[C@@H]2CCN(C)CC2(C)C)c(Cl)c1Cl.Cl 1.28

====

Experiment: Phase 1 single ascending dose study, plasma pharmacokinetics
Assay type: in vivo, human
Details: male, human, plasma; 0.3 mg HM01 single oral dose, n = 5; geometric mean
MEASURED_PARAMETER: AUC(0-inf)

Requested field: AUC(0-inf). Item: COc1ccc([C@H](C)NC(=O)N(C)[C@@H]2CCN(C)CC2(C)C)c(Cl)c1Cl.Cl [AC01/HM01] 4.56 ng·h/mL

====

Test: Phase 1 single ascending dose study, plasma pharmacokinetics
Assay type: in vivo, human
Conditions: male, human, plasma; 1.0 mg HM01 single oral dose, N = 6; arithmetic mean; read-out: t1/2 (converted)
MEASURED_PARAMETER: half-life

Requested field: half-life. Item: COc1ccc([C@H](C)NC(=O)N(C)[C@@H]2CCN(C)CC2(C)C)c(Cl)c1Cl.Cl 11 h

====

Test: Phase 1 single ascending dose study, plasma pharmacokinetics
Type: in vivo, human
Conditions: male, human, plasma; 0.3 mg HM01 single oral dose, n = 5; geometric mean; read-out: Vz/F
MEASURED_PARAMETER: Vd/F (L)
Reply with just the number (in L).

Requested field: Vd/F. Item: COc1ccc([C@H](C)NC(=O)N(C)[C@@H]2CCN(C)CC2(C)C)c(Cl)c1Cl.Cl [AC01/HM01] 801

====

Assay: Phase 1 single ascending dose study, plasma pharmacokinetics
Type: in vivo, human
Conditions: male, human, plasma, po, 0.3 mg, 0.3 mg HM01 single oral dose, fasted healthy males, N = 6; geometric mean; read-out: AUC0-24h
MEASURED_PARAMETER: AUC(0-t)
Note to self: number, then unit, no commentary.

Requested field: AUC(0-t). Item: COc1ccc([C@H](C)NC(=O)N(C)[C@@H]2CCN(C)CC2(C)C)c(Cl)c1Cl.Cl 3.75 ng·h/mL

====

Assay: Phase 1 single ascending dose study, plasma pharmacokinetics
Type: in vivo, human
Conditions: male, human, plasma; 0.1 mg HM01 single oral dose, N = 6; median; read-out: tmax
MEASURED_PARAMETER: Tmax (h)
Reply with just the number (in h).

Requested field: Tmax. Item: COc1ccc([C@H](C)NC(=O)N(C)[C@@H]2CCN(C)CC2(C)C)c(Cl)c1Cl.Cl [AC01/HM01] 3

====

Assay: Phase 1 single ascending dose study, plasma pharmacokinetics
Assay type: in vivo, human
Details: male, human, plasma, oral; similar for all doses; read-out: arithmetic mean half-life of HM01
MEASURED_PARAMETER: half-life

Requested field: half-life. Item: COc1ccc([C@H](C)NC(=O)N(C)[C@@H]2CCN(C)CC2(C)C)c(Cl)c1Cl.Cl 9 to 11 h

====

Assay: Phase 1 single ascending dose study, plasma pharmacokinetics
Format: in vivo, human
Conditions: male, human, plasma, oral; similar for all doses; read-out: median tmax of HM01
MEASURED_PARAMETER: Tmax

Requested field: Tmax. Item: COc1ccc([C@H](C)NC(=O)N(C)[C@@H]2CCN(C)CC2(C)C)c(Cl)c1Cl.Cl 3 to 4 h

====

Assay: Phase 1 single ascending dose study, plasma pharmacokinetics
Type: in vivo, human
Conditions: male, human, plasma; 0.3 mg HM01 single oral dose, n = 5; arithmetic mean; read-out: t1/2 (converted)
MEASURED_PARAMETER: half-life (h)
Reply with just the number (in h).

Requested field: half-life. Item: COc1ccc([C@H](C)NC(=O)N(C)[C@@H]2CCN(C)CC2(C)C)c(Cl)c1Cl.Cl [AC01/HM01] 8.83
